target: (α4I607T)3(β2)2 nAChR (Homo sapiens, UniProt P17787+P43681, I607T); assay: Two-electrode voltage-clamp of ACh-induced currents in Xenopus oocytes; settings: read-out: LY2087101 potentiation EC50
Sequence (P43681 29-627 I607T limits assumed, one chain of several): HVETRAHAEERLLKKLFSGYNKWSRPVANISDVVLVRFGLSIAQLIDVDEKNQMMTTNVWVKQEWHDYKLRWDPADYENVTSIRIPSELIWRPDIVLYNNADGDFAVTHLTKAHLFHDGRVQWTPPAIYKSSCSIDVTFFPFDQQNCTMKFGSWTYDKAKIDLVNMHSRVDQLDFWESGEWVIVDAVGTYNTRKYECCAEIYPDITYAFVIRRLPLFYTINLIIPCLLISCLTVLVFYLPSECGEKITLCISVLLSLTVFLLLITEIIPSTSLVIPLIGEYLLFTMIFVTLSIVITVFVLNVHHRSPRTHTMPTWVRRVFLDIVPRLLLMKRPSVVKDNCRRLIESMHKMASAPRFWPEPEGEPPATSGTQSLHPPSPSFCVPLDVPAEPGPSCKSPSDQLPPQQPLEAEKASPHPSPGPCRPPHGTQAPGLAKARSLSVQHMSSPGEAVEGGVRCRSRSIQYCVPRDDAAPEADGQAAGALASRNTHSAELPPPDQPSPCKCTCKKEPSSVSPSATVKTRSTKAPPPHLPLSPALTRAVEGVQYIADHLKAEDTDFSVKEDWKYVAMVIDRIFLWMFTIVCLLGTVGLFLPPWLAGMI
pEC50: −log10 of the molar value.

[
  {
    "RECORD SMILES": "Cc1nc(Nc2ccc(F)cc2)sc1C(=O)c1ccsc1",
    "pEC50": 6.10
  }
]

----------
biological target: (α4I315A)3(β2)2 nAChR (Homo sapiens, UniProt P17787+P43681, I315A); experiment: Two-electrode voltage-clamp of ACh-induced currents in Xenopus oocytes; conditions: read-out: LY2087101 potentiation EC50
Sequence (P43681 29-627 I315A limits assumed): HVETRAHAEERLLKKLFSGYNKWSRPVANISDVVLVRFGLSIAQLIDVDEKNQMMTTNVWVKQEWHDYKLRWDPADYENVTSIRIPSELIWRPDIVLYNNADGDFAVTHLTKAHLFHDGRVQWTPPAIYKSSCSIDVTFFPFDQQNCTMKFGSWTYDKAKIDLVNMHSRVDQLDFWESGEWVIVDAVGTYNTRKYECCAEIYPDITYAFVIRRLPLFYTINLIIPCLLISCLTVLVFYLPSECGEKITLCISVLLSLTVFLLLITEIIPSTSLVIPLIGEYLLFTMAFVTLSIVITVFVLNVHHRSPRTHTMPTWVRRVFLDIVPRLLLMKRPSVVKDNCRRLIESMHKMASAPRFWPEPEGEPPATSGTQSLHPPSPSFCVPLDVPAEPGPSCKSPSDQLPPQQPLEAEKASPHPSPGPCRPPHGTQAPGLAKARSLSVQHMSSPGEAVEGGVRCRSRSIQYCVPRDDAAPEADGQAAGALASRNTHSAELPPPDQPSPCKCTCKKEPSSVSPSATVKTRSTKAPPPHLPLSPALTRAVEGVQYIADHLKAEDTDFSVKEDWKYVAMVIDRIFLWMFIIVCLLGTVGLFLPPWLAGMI
Sequence (P17787 26-502): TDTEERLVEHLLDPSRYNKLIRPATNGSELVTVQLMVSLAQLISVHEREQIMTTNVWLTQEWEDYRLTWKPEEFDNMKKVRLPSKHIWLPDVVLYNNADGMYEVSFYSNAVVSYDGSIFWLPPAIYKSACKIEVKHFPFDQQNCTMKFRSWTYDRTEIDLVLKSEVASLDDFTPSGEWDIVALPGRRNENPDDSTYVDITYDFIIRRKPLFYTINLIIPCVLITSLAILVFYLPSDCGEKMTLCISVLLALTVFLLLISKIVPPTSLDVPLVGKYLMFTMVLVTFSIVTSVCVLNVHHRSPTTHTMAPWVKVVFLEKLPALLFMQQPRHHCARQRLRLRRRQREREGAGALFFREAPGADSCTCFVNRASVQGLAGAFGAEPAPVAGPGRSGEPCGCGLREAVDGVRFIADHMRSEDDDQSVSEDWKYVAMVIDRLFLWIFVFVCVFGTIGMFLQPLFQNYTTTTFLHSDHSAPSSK

[
  {
    "RECORD SMILES": "Cc1nc(Nc2ccc(F)cc2)sc1C(=O)c1ccsc1",
    "EC50": "1200 nM"
  }
]

----------
biological target: (α4I275V)3(β2)2 nAChR (Homo sapiens, UniProt P17787+P43681, I275V); experiment: Two-electrode voltage-clamp of ACh-induced currents in Xenopus oocytes; settings: read-out: LY2087101 potentiation EC50
PROPERTY MEASURED: EC50 (µM)

[
  {
    "MOLECULE": "Cc1nc(Nc2ccc(F)cc2)sc1C(=O)c1ccsc1 [LY2087101]",
    "REPORTED MEASUREMENT": 1.7
  }
]

----------
target: (α4I608L)3(β2)2 nAChR (Homo sapiens, UniProt P17787+P43681, I608L); assay: Two-electrode voltage-clamp of ACh-induced currents in Xenopus oocytes; settings: read-out: LY2087101 potentiation EC50
Sequence (P43681 29-627 I608L limits assumed, one chain of several): as the sequence (P43681 29-627 I607T limits assumed, one chain of several) above, with T579I, I580L counted along it
pEC50: −log10 of the molar value.
PROPERTY MEASURED: pEC50

[
  {
    "RECORD SMILES": "Cc1nc(Nc2ccc(F)cc2)sc1C(=O)c1ccsc1",
    "TEST SYSTEM": "(α4I608L)3(β2)2 nAChR (Homo sapiens, UniProt P17787+P43681, I608L)",
    "PROPERTY MEASURED": "pEC50",
    "REPORTED MEASUREMENT": 5.92
  }
]

----------
molecular target: (α4M605V)3(β2)2 nAChR (Homo sapiens, UniProt P17787+P43681, M605V); assay: Two-electrode voltage-clamp of ACh-induced currents in Xenopus oocytes; settings: read-out: LY2087101 potentiation EC50
Sequence (P43681 29-627 M605V limits assumed, one chain of several): as the sequence (P43681 29-627 I607T limits assumed, one chain of several) above, with M577V, T579I counted along it

[
  {
    "RECORD SMILES": "Cc1nc(Nc2ccc(F)cc2)sc1C(=O)c1ccsc1",
    "EC50 (nM)": 2700
  }
]

----------
target: (α4S284G)3(β2)2 nAChR (Homo sapiens, UniProt P17787+P43681, S284G); test: Two-electrode voltage-clamp of ACh-induced currents in Xenopus oocytes; details: read-out: LY2087101 potentiation EC50
Sequence (P43681 29-627 S284G limits assumed, one chain of several): as the sequence (P43681 29-627 I607T limits assumed, one chain of several) above, with S256G, T579I counted along it
pEC50: −log10 of the molar value.
PROPERTY MEASURED: pEC50

[
  {
    "COMPOUND": "Cc1nc(Nc2ccc(F)cc2)sc1C(=O)c1ccsc1 [LY2087101]",
    "TEST SYSTEM": "(α4S284G)3(β2)2 nAChR (Homo sapiens, UniProt P17787+P43681, S284G)",
    "PROPERTY MEASURED": "pEC50",
    "REPORTED MEASUREMENT": 6.15
  }
]
